assay_explanation: qHTS assay to identify aromatase inhibitors - cell viability counter screen (AID 743084);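 also: cells stimulated with testosterone during compound exposure; nearly all actives have a fitted effect of over 55% in size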; also: potency is read from the fitted curve at half-maximal effect
measurement_parameters: MCF-7 aro ERE viability, CellTiter-Fluor, 24 h; series mostly up to 70.3 µM
Inconclusive results are not listed. Active and inactive are the calls of the source. Calls follow the shape of the dose curve; as a rule, active = well fitted cell-killing curve with a large enough effect in the repeat runs; inconclusive = weak or mixed curves, or effect the other way; inactive = no such curve, though single readings can be large or run the other way.
quantity_kind: Potency

Answered examples (5):
CC/C(=C(\c1ccc(O)cc1)c1ccc(OCCN(C)C)cc1)c1ccccc1 ... 48.7 µM (active)
Nc1c(Cl)cc(Cl)cc1Cl ... inactive
O=C1CCCc2c1cc1ccc3cccc4ccc2c1c34 ... inactive
O=C(OCC(COC(=O)c1ccccc1)(COC(=O)c1ccccc1)COC(=O)c1ccccc1)c1ccccc1 ... inactive
N=C1N=C(N)c2ccccc21 ... 61.1 µM (active)

State the recorded Potency for this entry: c1cc(C(c2ccc(OCC3CO3)cc2)c2ccc(OCC3CO3)cc2)ccc1OCC1CO1 (stereo unspecified)
54.5 µM (active)

State the recorded Potency for this entry: `COCCCC/C(=N\OCCN)c1ccc(C(F)(F)F)cc1`
inactive

State the recorded Potency for this entry: `CN(C)C(=O)C1(N2CCCCC2)CCN(CC[C@@]2(c3ccc(Cl)c(Cl)c3)CN(C(=O)c3ccccc3)CCO2)CC1`
50.9 µM (active)

State the recorded Potency for this entry: `Cc1cc(N)c(S(=O)(=O)O)cc1Cl`
inactive

State the recorded Potency for this entry: `O=S1(=O)CC(Cl)(Cl)C(Cl)(Cl)C1`
2.17 µM (active)

State the recorded Potency for this entry: `CCCC(c1cc(C(C)(C)C)c(O)cc1C)c1cc(C(C)(C)C)c(O)cc1C`
49.2 µM (active)

###

assay_explanation: qHTS assay to identify small molecule antagonists of the estrogen receptor alpha (ER-alpha) signaling pathway using the BG1 cell line in the presence of 0.1 nM 17-beta-estradiol - cell viability counter screen (AID 1259241); also: nearly all actives have a fitted effect of over 40% in size; also: potency is read from the fitted curve at half-maximal effect
measurement_parameters: VM7Luc4E2 (BG1) viability, CellTiter-Fluor protease, 22 h, 0.1 nM estradiol agonist added; series mostly up to 92.4 µM
Results filed as inconclusive are left out. Activity calls are given as the source filed them. The call rests on the fitted dose curve; in most records, active means well fitted cell-killing curve with a large enough effect in the repeat runs; inconclusive means weak or mixed curves, or effect the other way; inactive means flat fitted curve, though single readings scatter.
quantity_kind: Potency

CN(C/C=C/C#CC(C)(C)C)Cc1cccc2ccccc12 ... inactive
[Cl][Bi]([Cl])([c]1ccccc1)([c]1ccccc1)[c]1ccccc1 ... 12.1 µM (active)
CCN(CC)CCCC(C)Nc1c2ccc(Cl)cc2nc2ccc(OC)cc12 (centres undefined) ... inactive
OCCCCCCCCCCCCBr ... inactive

###

assay_explanation: qHTS RealTime-Glo MT Cell Viability Assay in HEK293 cells - 32 hour (AID 1224868); also: nearly all actives have a fitted effect of over 50% in size
measurement_parameters: RealTime-Glo luminescence; series mostly up to 76.8 µM
Records with an inconclusive call do not appear. Active and inactive are the calls of the source. Calls follow the shape of the dose curve; as a rule, active = well fitted cell-killing curve with a large enough effect in the repeat runs; inconclusive = weak or mixed curves, or effect the other way; inactive = flat fitted curve, though single readings scatter.
Select the matching outcome among True = active, False = inactive

For `CCN1/C(=C/C=C/c2sc3ccccc3[n+]2CC)Sc2ccccc21` , what call appears in the results of this test?
True

For `CCc1cc(Cc2cc(CC)c(N)c(CC)c2)cc(CC)c1N` , what call appears in the results of this test?
True

For `CCCCN(CCCC)C(=O)N(CCCC)CCCC` , what call appears in the results of this test?
False

For `Oc1ccc(N=Nc2ccccc2)cc1` , what call appears in the results of this test?
True

For `CCCCCCCCCCC=O` , what call appears in the results of this test?
False

For `CCCCN1C(=O)[C@@H]([C@H](O)C2CCCCC2)NC(=O)C12CCN(Cc1ccc(Oc3ccc(C(=O)O)cc3)cc1)CC2` , what call appears in the results of this test?
False

For `CCCCCCCCCCCCCCCC(=O)OC[C@H](O)[C@H]1OC(=O)C(O)=C1O` , what call appears in the results of this test?
False

For `NC(=NCCCCCCN=C(N)/N=C(\N)Nc1ccc(Cl)cc1)/N=C(\N)Nc1ccc(Cl)cc1` , what call appears in the results of this test?
True

For `O=C(O)c1ccc(Cl)c(Cl)c1` , what call appears in the results of this test?
False

For `CCCCCCCC[N+](CCCCCCCC)(CCCCCCCC)CCCCCCCC` , what call appears in the results of this test?
True

For `O=C(O)c1cc(O)c2c(c1)C(=O)c1cccc(O)c1C2=O` , what call appears in the results of this test?
False

###

assay_explanation: Caspase-3/7 induction in HepG2 cells by small molecules, qHTS cell viability counter screen (AID 1346981); also: nearly all actives have a fitted effect of over 30% in size
measurement_parameters: CellTiter-Fluor fluorescence, 17 h; series mostly up to 92.4 µM
Inconclusive results are not listed. The source made the active and inactive calls. The call rests on the fitted dose curve; in most records, active means well fitted cell-killing curve with a large enough effect in the repeat runs; inconclusive means weak or mixed curves, or effect the other way; inactive means flat fitted curve, though single readings scatter.
Select the matching outcome among active, inactive

For `CCc1oc2ccccc2c1C(=O)c1cc(Br)c(O)c(Br)c1` , what call appears in the results of this test?
inactive

For `Oc1ccc(N=Nc2ccccc2)cc1` , what call appears in the results of this test?
active

For `Oc1ccc(Cl)cc1Sc1cc(Cl)ccc1O` , what call appears in the results of this test?
active

For `CC1=C(/C=C/C(C)=C/C=C/C(C)=C/C=O)C(C)(C)CCC1` , what call appears in the results of this test?
active

For `C/C(=C(/OCCOc1ccc(Cl)cc1)c1ccc(Cl)cc1Cl)n1ccnc1` , what call appears in the results of this test?
inactive

For `CCOC(=O)O[C@]1(C(=O)OCCl)CC[C@H]2[C@@H]3CCC4=CC(=O)C=C[C@]4(C)[C@H]3[C@@H](O)C[C@@]21C` , what call appears in the results of this test?
inactive

For `Cc1cccc(S(=O)(=O)O)c1C` , what call appears in the results of this test?
inactive

For `Oc1cccc(-c2c3nc(c(-c4cccc(O)c4)c4ccc([nH]4)c(-c4cccc(O)c4)c4nc(c(-c5cccc(O)c5)c5ccc2[nH]5)CC4)C=C3)c1` , what call appears in the results of this test?
active

For `CSc1ccc(/C=C2/C(C)=C(CC(=O)O)c3cc(F)ccc32)cc1` , what call appears in the results of this test?
inactive

For CC(=O)OCC(C)OC(C)=O (stereo not given) , what call appears in the results of this test?
inactive

###

assay_explanation: qHTS RealTime-Glo MT Cell Viability Assay in HepG2 cells - 40 hour (AID 1224870); also: nearly all actives have a fitted effect of over 50% in size
measurement_parameters: RealTime-Glo luminescence; series mostly up to 76.8 µM
Records with an inconclusive call do not appear. Active and inactive are the calls of the source. Calls follow the shape of the dose curve; as a rule, active = well fitted cell-killing curve with a large enough effect in the repeat runs; inconclusive = weak or mixed curves, or effect the other way; inactive = flat fitted curve, though single readings scatter.
Select the matching outcome among active, inactive

For CC(C)(C)C1CCC(CC2=C(O)c3ccccc3C(=O)C2=O)CC1 (centres undefined) , what call appears in the results of this test?
inactive

For CCC(C)Nc1ccc(NC(C)CC)cc1 (centres undefined) , what call appears in the results of this test?
active

For CCCCC(CC)COP(=O)(O)OCC(CC)CCCC (centres undefined) , what call appears in the results of this test?
inactive

For Clc1ccc(C(Cn2ccnc2)OCc2ccc(Sc3ccccc3)cc2)c(Cl)c1 (centres undefined) , what call appears in the results of this test?
inactive

For `On1ccccc1=S` , what call appears in the results of this test?
active

For `CCN(C(=O)c1cc(C)cc(OC[C@H](C)Nc2ccncc2)c1)C(C)C` , what call appears in the results of this test?
inactive

For `COC(=O)c1cc(Cl)ccc1OC` , what call appears in the results of this test?
inactive

For `Nc1nc2ccccc2n1Cc1ccc(F)cc1` , what call appears in the results of this test?
inactive

For `CCCCCCCC(=O)[O-].CCCCCCCC(=O)[O-].[Zn+2]` , what call appears in the results of this test?
inactive

For CCCC(C)c1ccccc1O (centres undefined) , what call appears in the results of this test?
inactive

For `CC(C)c1ccc2c(c1)CC[C@H]1[C@](C)(CN)CCC[C@]21C` , what call appears in the results of this test?
active

For `C/C=C1/C(=O)C[C@H]2[C@@H]3CCC4=CC(=O)CC[C@]4(C)[C@H]3CC[C@]12C` , what call appears in the results of this test?
inactive

For `CCCCCCCCCCn1cc[n+](CCCCCCCCCC)c1C` , what call appears in the results of this test?
active

For `N#CC1(c2ccc(F)cc2)CCC(=O)CC1` , what call appears in the results of this test?
inactive

For `COc1c(C)c2c(c(O)c1C/C=C(\C)CCC(=O)O)C(=O)OC2` , what call appears in the results of this test?
inactive

For `CC(C)(C)C(=O)OCOC(=O)[C@@H]1N2C(=O)[C@@H](NC(=O)[C@H](N)c3ccccc3)[C@H]2SC1(C)C` , what call appears in the results of this test?
inactive

For `[Cl][Bi]([Cl])([c]1ccccc1)([c]1ccccc1)[c]1ccccc1` , what call appears in the results of this test?
active

For O=C(OCC1CO1)C1CCCCC1C(=O)OCC1CO1 (centres undefined) , what call appears in the results of this test?
inactive

For Cc1cccc(CN2CCN(C(c3ccccc3)c3ccc(Cl)cc3)CC2)c1 (centres undefined) , what call appears in the results of this test?
inactive

For `O=C1C=CC(=O)N1` , what call appears in the results of this test?
active

For `Cc1cc(C2CCCCC2)n(O)c(=O)c1` , what call appears in the results of this test?
inactive

For `C[C@H]1[C@H]2CC[C@H]3[C@@H]4CC=C5C[C@@H](N(C)C)CC[C@]5(C)[C@H]4CC[C@]23CN1C` , what call appears in the results of this test?
inactive

For `Cn1cc(C(=O)[C@@H]2CCc3nc[nH]c3C2)c2ccccc21` , what call appears in the results of this test?
inactive

For `Nc1ccc2c3c(cccc13)-c1ccccc1-2` , what call appears in the results of this test?
inactive
